FYI, the data here is from the supplement of paper PMC7877785.

So I've got a bunch of sequences here, and I need their self-splicing fitness (ln) values.
MEASUREMENT_DESCRIPTION: self-splicing fitness, log relative to wild type (ln ratio); higher = more splicing; Tetrahymena group I intron in knt gene, E. coli kanamycin selection, DiMSum; sequences stand for … in CUCUCU…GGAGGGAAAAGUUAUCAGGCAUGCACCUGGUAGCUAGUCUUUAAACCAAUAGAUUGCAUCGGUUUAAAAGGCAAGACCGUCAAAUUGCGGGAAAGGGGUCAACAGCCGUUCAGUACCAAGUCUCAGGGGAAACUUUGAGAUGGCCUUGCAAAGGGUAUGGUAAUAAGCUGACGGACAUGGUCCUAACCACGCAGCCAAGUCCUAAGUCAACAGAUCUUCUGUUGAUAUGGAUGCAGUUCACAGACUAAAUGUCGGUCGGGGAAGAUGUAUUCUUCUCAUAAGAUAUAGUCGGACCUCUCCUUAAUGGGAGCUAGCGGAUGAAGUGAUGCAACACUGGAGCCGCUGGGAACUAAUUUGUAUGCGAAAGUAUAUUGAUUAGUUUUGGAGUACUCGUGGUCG;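 note: selection with 25 µg/mL kanamycin versus none on LB agar overnight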
TEST_PARAMETERS: 37 °C
Respond with the number and no other words.

Field self-splicing fitness (ln) (entry "UAGUAGCAAUAUUACGUAAC" ) reads -1.89

Field self-splicing fitness (ln) (entry "CCUGAGCAAUAUUACGUAAA" ) reads -2.49

Field self-splicing fitness (ln) (entry "GGCUAGCAAUAUUACGCAAC" ) reads -0.72

Field self-splicing fitness (ln) (entry "UGGGAGCAAUAUUACGGUCU" ) reads -2.09

Field self-splicing fitness (ln) (entry "UUUAAGCAAUAUUACGGUGA" ) reads -0.554

Field self-splicing fitness (ln) (entry "AUCUAGCAAUAUUACGCACG" ) reads -0.353

Field self-splicing fitness (ln) (entry "GGACAGCAAUAUUACGGCCU" ) reads -1.13

Field self-splicing fitness (ln) (entry "AACAAGCAAUAUUACGCACA" ) reads -0.163

Field self-splicing fitness (ln) (entry "GGACAGCAAUAUUACGAGAU" ) reads -1.45

Field self-splicing fitness (ln) (entry "ACUUAGCAAUAUUACGGGCU" ) reads -0.866

Field self-splicing fitness (ln) (entry "CCUCAGCAAUAUUACGAUAG" ) reads -1.24

Field self-splicing fitness (ln) (entry "AAAUAGCAAUAUUACGAUAC" ) reads -2.64

Field self-splicing fitness (ln) (entry "UGUCAGCAAUAUUACGAACC" ) reads -0.024

Field self-splicing fitness (ln) (entry "UAUAAGCAAUAUUACGGACG" ) reads 0.194

Field self-splicing fitness (ln) (entry "AAUCAGCAAUAUUACGUUGG" ) reads -1

Field self-splicing fitness (ln) (entry "CAGCAGCAAUAUUACGGUAG" ) reads 0.0584

Field self-splicing fitness (ln) (entry "GCAAAGCAAUAUUACGCCGG" ) reads -1.71

Field self-splicing fitness (ln) (entry "AAUAAGCAAUAUUACGUCCU" ) reads 0.0333

Field self-splicing fitness (ln) (entry "UCGUAGCAAUAUUACGCGGA" ) reads -1.4

Field self-splicing fitness (ln) (entry "UUGCAGCAAUAUUACGAAUG" ) reads -0.713

Field self-splicing fitness (ln) (entry "ACCCAGCAAUAUUACGGUGC" ) reads -0.261

Field self-splicing fitness (ln) (entry "GAAUAGCAAUAUUACGAUCC" ) reads -0.622

Field self-splicing fitness (ln) (entry "AAGGAGCAAUAUUACGCCCU" ) reads -1.91

Field self-splicing fitness (ln) (entry "CAAUAGCAAUAUUACGAUGG" ) reads -0.114

Field self-splicing fitness (ln) (entry "CUAAAGCAAUAUUACGCACA" ) reads -2.11

Field self-splicing fitness (ln) (entry "CUGAAGCAAUAUUACGACAA" ) reads 0.0189

Field self-splicing fitness (ln) (entry "UUAUAGCAAUAUUACGGUCA" ) reads -0.305

Field self-splicing fitness (ln) (entry "AUCCAGCAAUAUUACGCACA" ) reads 0.366
